Structures can show the parent of a compound that is named as a salt.
The following compounds each carry a recorded log10 of Ki for UniProt P08483.
Sequence (P08483 whole entry): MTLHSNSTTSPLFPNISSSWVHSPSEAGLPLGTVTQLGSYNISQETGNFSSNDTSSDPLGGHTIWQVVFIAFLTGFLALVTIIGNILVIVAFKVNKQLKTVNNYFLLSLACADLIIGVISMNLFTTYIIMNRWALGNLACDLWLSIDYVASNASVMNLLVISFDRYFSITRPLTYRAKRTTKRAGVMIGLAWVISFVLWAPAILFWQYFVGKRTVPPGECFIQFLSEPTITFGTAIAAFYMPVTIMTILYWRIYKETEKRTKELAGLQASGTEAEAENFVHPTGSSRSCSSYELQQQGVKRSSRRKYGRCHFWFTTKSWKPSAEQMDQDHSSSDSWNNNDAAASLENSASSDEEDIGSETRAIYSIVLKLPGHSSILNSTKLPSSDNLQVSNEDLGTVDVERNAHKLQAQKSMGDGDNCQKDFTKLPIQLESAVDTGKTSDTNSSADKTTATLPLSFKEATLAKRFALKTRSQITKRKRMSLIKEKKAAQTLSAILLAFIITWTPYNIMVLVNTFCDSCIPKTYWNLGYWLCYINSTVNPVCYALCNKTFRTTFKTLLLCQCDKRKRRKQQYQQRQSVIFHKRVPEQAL
Form field - Quantity: Ki; Unit: nM; Scale: log10

See these solved cases before continuing.
Compound: CC(C)=CCN1C[C@@H]2[C@@H](CNC(=O)C(O)(c3ccccc3)C3CCCCC3)[C@@H]2C1 (stereo partly drawn) [Compound No. 39]
Target system: UniProt P08483
log10 of Ki: 0.64
//
Compound: O=C(NC[C@@H]1[C@H]2CN(CCc3ccc4c(c3)CCO4)C[C@@H]12)C(O)(c1ccccc1)C1CCCCC1 (stereo partly drawn) [Compound No. 9]
Target system: UniProt P08483
log10 of Ki: 1.59

## Task Query: log10 of Ki; subject: O=C(NCC1C2CN(Cc3ccccc3)CC12)C(O)(c1ccccc1)C1CCCC1 (stereo not drawn) [Compound No. 34]
## Result 0.77

## Task Same again, this time with CC(c1ccccc1)N1CC2C(CNC(=O)C(O)(c3ccccc3)C3CCCC3)C2C1 (stereo not drawn) [Compound No. 22]
## Result 0.77

## Task O=C(NCC1C2CN(Cc3ccncc3)CC12)C(O)(c1ccccc1)C1CCCCC1 (stereo not drawn) [Compound No. 46] , same question.
## Result 1.83

## Task Now consider O=C(NC[C@@H]1[C@H]2CN(Cc3ccccc3)C[C@@H]12)[C@@](O)(c1ccccc1)C1CCCC1 [Compound No. 32] .
## Result 1.35

## Task Now this one: CC(C)=CCCN1CC2C(CNC(=O)C(O)(c3ccccc3)C3CCCC3)C2C1 (stereo not drawn) [Compound No. 16]
## Result 1.37

## Task Same question, O=C(NC[C@@H]1[C@H]2CN(Cc3ccccc3)C[C@@H]12)[C@](O)(c1ccccc1)C1CCCC1 [Compound No. 29] this time
## Result 0.04

## Task Moving on to CC(NC(=O)C(O)(c1ccccc1)c1ccccc1)[C@H]1[C@@H]2CN(Cc3ccccc3)C[C@@H]21 (stereo partly drawn) [Compound No. 23]
## Result 2.20

## Task Lookup O=C(NC[C@@H]1[C@H]2CN(Cc3ccccc3)C[C@@H]12)C(O)(c1ccccc1)C1CCCC1 (stereo partly drawn) [Compound No. 62, Maleate salt]
## Result 0.83

## Task Please answer likewise for O=C(NCC1C2CN(Cc3ccccc3)CC12)C(O)(c1ccccc1)C1CCCC1 (stereo not drawn) [Compound No. 60, hydrochloride salt]
## Result 0.72

## Task // next record CC(c1ccccc1)N1CC2C(CNC(=O)C(O)(c3ccccc3)C3CCCCC3)C2C1 (stereo not drawn) [Compound No. 21]
## Result 1.18

## Task Please do the same for CC(C)=CCCN1C[C@@H]2[C@@H](CNC(=O)C(O)(c3ccccc3)C3CCCCC3)[C@@H]2C1 (stereo partly drawn) [Compound No. 15] as well.
## Result 1.13

## Task Same again, this time with O=C(NCC1C2CN(Cc3ccccc3)CC12)C(O)(c1ccccc1)C1CCCCC1 (stereo not drawn) [Compound No. 2]
## Result 0.75

## Task Note, next up: O=C(NC[C@@H]1[C@H]2CN(Cc3ccccc3)C[C@@H]12)C(O)(c1ccccc1)C1CCCC1 (stereo partly drawn) [Compound No. 3]
## Result 0.77
